Data origin, for the record: patent US7534894B2

# experimental target: recombinant human plasminogen activator inhibitor-1 (PAI-1) (Homo sapiens)
# Construct: purchased Molecular Innovations, Royal Oak, Mich
# test: Primary Screen for the PAI-1 Inhibition (residual tPA activity, chromogenic substrate Spectrozyme-tPA)
# Type: biochemical
# condition: 25 μM test compound; 140 nM PAI-1, 70 nM tPA, pH 6.6
measured parameter: inhibition at 25 µM (%)

>>> reading("Cc1cc(C)c2c(c1C(=O)Nc1ccc(-c3cccc(OC(Cc4ccccc4)C(=O)O)c3)cc1)CC(C)(C)C2=O (stereo not shown)")
29
>>> reading("O=C(O)C(Cc1ccccc1)Oc1cccc(-c2ccc(NC(=O)C3(c4ccccc4)CC3)cc2)c1 (stereo not shown)")
19
>>> reading("CCCCc1oc2ccccc2c1C(=O)N(C)Cc1ccc(-c2ccc(OC(Cc3ccccc3)C(=O)O)c(Br)c2)cc1 (stereo not shown)")
55
>>> reading("O=C(O)C(Cc1ccccc1)Oc1cccc(-c2ccc(NC(=O)C3(c4ccc(Cl)cc4)CCCC3)cc2)c1 (stereo not shown)")
58
>>> reading("O=C(O)COc1ccc(-c2ccc(NC(=O)C3(c4cccc(F)c4)CCCC3)cc2)cc1")
3
>>> reading("O=C(Nc1ccc(-c2ccc(OC(Cc3ccccc3)C(=O)O)cc2)cc1)c1sc2ccccc2c1Cl (stereo not shown)")
34
>>> reading("O=C(O)COc1ccc(-c2ccc(NC(=O)C3(c4ccc(Cl)cc4)CCCC3)cc2)cc1")
30

----------
# experimental target: recombinant human plasminogen activator inhibitor-1 (PAI-1) (Homo sapiens, UniProt P05121)
# Construct: purchased Molecular Innovations, Royal Oak, Mich
# Sequence (P05121 24-402): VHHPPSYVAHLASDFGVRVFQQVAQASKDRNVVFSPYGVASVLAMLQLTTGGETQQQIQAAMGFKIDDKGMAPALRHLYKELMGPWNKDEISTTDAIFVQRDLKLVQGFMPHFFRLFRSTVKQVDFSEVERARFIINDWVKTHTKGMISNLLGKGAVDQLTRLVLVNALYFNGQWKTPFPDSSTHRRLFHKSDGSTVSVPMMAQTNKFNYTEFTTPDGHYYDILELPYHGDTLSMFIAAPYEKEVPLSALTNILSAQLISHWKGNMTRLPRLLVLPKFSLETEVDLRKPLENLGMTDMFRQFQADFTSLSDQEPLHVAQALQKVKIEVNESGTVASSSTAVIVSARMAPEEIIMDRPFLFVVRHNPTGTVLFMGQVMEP
# test: Primary Screen for the PAI-1 Inhibition (residual tPA activity, chromogenic substrate Spectrozyme-tPA)
# Assay type: biochemical
# condition: 25 μM test compound; 140 nM PAI-1, 70 nM tPA, pH 6.6
measured parameter: inhibition at 25 µM (%)

>>> reading("CCCc1ccc(-c2ccc(C(=O)Nc3ccc(-c4ccc(OC(Cc5ccccc5)C(=O)O)cc4)cc3)cc2)cc1 (stereo not shown) [Compound 20]")
40
>>> reading("O=C(O)C(Cc1ccccc1)Oc1ccc(-c2ccc(NC(=O)C3(c4cccc(F)c4)CCCC3)cc2)cc1 (stereo not shown) [Compound 34]")
33
>>> reading("CCCCc1oc2ccccc2c1C(=O)N(C)Cc1ccc(-c2ccc(OCC(=O)O)c(Br)c2)cc1 [Compound 7]")
64
>>> reading("O=C(O)COc1ccc(-c2ccc(NC(=O)c3cc(-c4ccc(-c5ccccc5)cc4)oc3C(F)(F)F)cc2)cc1 [Compound 36]")
29
>>> reading("CCCc1c(C(=O)NCc2ccc(-c3ccc(OCC(=O)O)cc3)cc2)cnn1-c1ccccc1 [Compound 2]")
2
>>> reading("CCCCc1oc2ccccc2c1C(=O)Nc1ccc(-c2cccc(OC(Cc3ccccc3)C(=O)O)c2)cc1 (stereo not shown) [Compound 41]")
30
>>> reading("CCCCc1oc2ccccc2c1C(=O)Nc1ccc(-c2ccc(OC(Cc3ccccc3)C(=O)O)cc2)cc1 (stereo not shown) [Compound 49]")
25

----------
As shown below, each of these compounds has a reported inhibition at 25 µM value.
# experimental target: recombinant human plasminogen activator inhibitor-1 (PAI-1) (Homo sapiens, UniProt P05121)
# Construct: purchased Molecular Innovations, Royal Oak, Mich
# test: Primary Screen for the PAI-1 Inhibition (residual tPA activity, chromogenic substrate Spectrozyme-tPA)
# Type: biochemical
# condition: 25 μM test compound; 140 nM PAI-1, 70 nM tPA, pH 6.6
measured parameter: inhibition at 25 µM (%)

>>> reading("CN(Cc1ccc(-c2ccc(OCc3nnn[nH]3)c(Br)c2)cc1)C(=O)c1cn(C)c2ccccc12")
41
>>> reading("CCCc1c(C(=O)NCc2ccc(-c3ccc(OCC(=O)O)c(Br)c3)cc2)cnn1-c1ccccc1")
47
>>> reading("O=C(Nc1ccc(-c2ccc(OC(Cc3ccccc3)C(=O)O)cc2)cc1)c1cc(-c2ccc(C(F)(F)F)cc2)oc1C(F)(F)F (stereo not drawn)")
27
>>> reading("O=C(Nc1ccc(-c2ccc(OC(Cc3ccccc3)C(=O)O)cc2)cc1)c1ccc2ccccc2c1 (stereo not drawn)")
26
>>> reading("CCCCc1oc2ccccc2c1C(=O)Nc1ccc(-c2ccc(OCc3nnn[nH]3)cc2)cc1")
29
>>> reading("CCCCc1oc2ccccc2c1C(=O)Nc1ccc(-c2ccc(OCC(=O)O)cc2)cc1")
25
>>> reading("O=C(O)C(Cc1ccccc1)Oc1ccc(-c2ccc(NC(=O)C3(c4ccccc4)CC3)cc2)cc1 (stereo not drawn)")
15
>>> reading("O=C(O)C(Cc1ccccc1)Oc1ccc(-c2ccc(NC(=O)C3(c4ccccc4)CCCC3)cc2)cc1 (stereo not drawn)")
24
>>> reading("O=C(O)COc1ccc(-c2ccc(NC(=O)C3(c4ccc(Cl)cc4)CCC3)cc2)cc1")
15
>>> reading("O=C(O)C(Cc1ccccc1)Oc1ccc(-c2ccc(NC(=O)C3(c4ccc(Cl)cc4)CC3)cc2)cc1 (stereo not drawn)")
22
>>> reading("CCCc1c(C(=O)Nc2ccc(-c3cccc(OC(Cc4ccccc4)C(=O)O)c3)cc2)cnn1-c1ccc(Cl)cc1 (stereo not drawn)")
20
>>> reading("O=C(O)C(Cc1ccccc1)Oc1ccc(-c2ccc(NC(=O)C3(c4ccc(Cl)cc4)CCC3)cc2)cc1 (stereo not drawn)")
14
>>> reading("O=C(O)C(Cc1ccccc1)Oc1cccc(-c2ccc(NC(=O)C3(c4ccc(Cl)cc4)CC3)cc2)c1 (stereo not drawn)")
31
>>> reading("O=C(O)C(Cc1ccccc1)Oc1cccc(-c2ccc(NC(=O)C3(c4ccc(Cl)cc4)CCCCC3)cc2)c1 (stereo not drawn)")
46
>>> reading("O=C(O)C(Cc1ccccc1)Oc1cccc(-c2ccc(NC(=O)C3(c4ccc(Cl)cc4)CCC3)cc2)c1 (stereo not drawn)")
40
>>> reading("O=C(Nc1ccc(-c2ccc(OC(Cc3ccccc3)C(=O)O)cc2)cc1)c1ccc(-c2ccc(Cl)cc2)o1 (stereo not drawn)")
28
>>> reading("CN(Cc1ccc(-c2ccc(OCc3nnn[nH]3)c(Br)c2)cc1)C(=O)c1cn(Cc2ccccc2)c2ccccc12")
45
>>> reading("O=C(Nc1ccc(-c2ccc(OC(Cc3ccccc3)C(=O)O)cc2)cc1)c1ccc(-c2ccc(Cl)cc2)s1 (stereo not drawn)")
36

----------
# experimental target: recombinant human plasminogen activator inhibitor-1 (PAI-1) (Homo sapiens, UniProt P05121)
# test: Kinetic IC50: modification of the Primary Screen for the PAI-1 Inhibition
# Procedure: Test compounds are dissolved in DMSO at a final concentration of 10 mM, then diluted 101× in physiologic buffer. […] Following the second incubation, Spectrozyme-tPA (American Diagnostica, Greenwich, Conn.), a chromogenic substrate for tPA, is added and absorbance read at 405 nm at 0 and 60 minutes. […]
pIC50: −log10 of the molar value.
measured parameter: pIC50

>>> reading("CCCc1c(C(=O)Nc2ccc(-c3cccc(OC(Cc4ccccc4)C(=O)O)c3)cc2)cnn1-c1ccc(Cl)cc1 (stereo not shown)")
5.11
>>> reading("O=C(Nc1ccc(-c2cccc(OC(Cc3ccccc3)C(=O)O)c2)cc1)c1cccc2c1-c1ccccc1C2 (stereo not shown)")
4.92
>>> reading("O=C(Nc1ccc(-c2ccc(OC(Cc3ccccc3)C(=O)O)cc2)cc1)c1ccc(Oc2ccccc2)cc1 (stereo not shown)")
4.94
>>> reading("O=C(O)COc1ccc(-c2ccc(NC(=O)c3cc(-c4ccc(-c5ccccc5)cc4)oc3C(F)(F)F)cc2)cc1")
4.74
>>> reading("O=C(O)C(Cc1ccccc1)Oc1ccc(-c2ccc(NC(=O)C3(c4cccc(F)c4)CCCC3)cc2)cc1 (stereo not shown)")
4.41
>>> reading("O=C(O)C(Cc1ccccc1)Oc1ccc(-c2ccc(NC(=O)C3(c4ccccc4)CC3)cc2)cc1 (stereo not shown)")
5.39
>>> reading("O=C(O)C(Cc1ccccc1)Oc1cccc(-c2ccc(NC(=O)C3(c4ccccc4)CCCC3)cc2)c1 (stereo not shown)")
4.39

----------
# experimental target: recombinant human plasminogen activator inhibitor-1 (PAI-1) (Homo sapiens)
# Construct: purchased Molecular Innovations, Royal Oak, Mich
# test: Primary Screen for the PAI-1 Inhibition (residual tPA activity, chromogenic substrate Spectrozyme-tPA)
# Format: biochemical
# condition: 100 μM test compound; 140 nM PAI-1, 70 nM tPA, pH 6.6
As shown below, each of these compounds has a reported inhibition at 100 µM value.
measured parameter: inhibition at 100 µM (%)

>>> reading("O=C(O)C(Cc1ccccc1)Oc1ccc(-c2ccc(NC(=O)C3(c4ccccc4)CC3)cc2)cc1 (stereo not drawn) [Compound 32]")
78
>>> reading("O=C(Nc1ccc(-c2ccc(OC(Cc3ccccc3)C(=O)O)cc2)cc1)c1ccc(-c2ccc(Cl)cc2)s1 (stereo not drawn) [Compound 46]")
84
>>> reading("CN(Cc1ccc(-c2ccc(OCc3nnn[nH]3)c(Br)c2)cc1)C(=O)c1cn(C)c2ccccc12 [Compound 9]")
81

----------
# experimental target: recombinant human plasminogen activator inhibitor-1 (PAI-1) (Homo sapiens, UniProt P05121)
# test: Kinetic IC50: modification of the Primary Screen for the PAI-1 Inhibition
measured parameter: IC50 (µM)

>>> reading("O=C(Nc1ccc(-c2ccc(OC(Cc3ccccc3)C(=O)O)cc2)cc1)c1cc(-c2ccc(C(F)(F)F)cc2)oc1C(F)(F)F (stereo not drawn) [Compound 50]")
18.7
>>> reading("O=C(O)C(Cc1ccccc1)Oc1cccc(-c2ccc(NC(=O)C3(c4ccc(Cl)cc4)CCCC3)cc2)c1 (stereo not drawn) [Compound 26]")
16.4
>>> reading("O=C(O)COc1ccc(-c2ccc(NC(=O)C3(c4ccc(Cl)cc4)CCC3)cc2)cc1 [Compound 35]")
39.3
>>> reading("O=C(O)C(Cc1ccccc1)Oc1ccc(-c2ccc(NC(=O)C3(c4ccccc4)CCCC3)cc2)cc1 (stereo not drawn) [Compound 31]")
31.1
>>> reading("O=C(O)C(Cc1ccccc1)Oc1ccc(-c2ccc(NC(=O)C3(c4ccc(Cl)cc4)CC3)cc2)cc1 (stereo not drawn) [Compound 33]")
13.9
>>> reading("O=C(O)C(Cc1ccccc1)Oc1cccc(-c2ccc(NC(=O)C3(c4ccc(Cl)cc4)CCC3)cc2)c1 (stereo not drawn) [Compound 39]")
12
>>> reading("O=C(Nc1ccc(-c2cccc(OC(Cc3ccccc3)C(=O)O)c2)cc1)c1ccc(Oc2ccccc2)cc1 (stereo not drawn) [Compound 37]")
18.1
>>> reading("O=C(Nc1ccc(-c2cccc(OC(Cc3ccccc3)C(=O)O)c2)cc1)c1cc(-c2ccc(-c3ccccc3)cc2)oc1C(F)(F)F (stereo not drawn) [Compound 42]")
18.6
>>> reading("O=C(Nc1ccc(-c2cccc(OC(Cc3ccccc3)C(=O)O)c2)cc1)c1cc(-c2ccccc2Cl)oc1C(F)(F)F (stereo not drawn) [Compound 40]")
10.2
